target: HLA-A*02:03; experiment: IEDB peptide-MHC binding, purified MHC/competitive/radioactivity; filed as Kd, often an IC50 or EC50 that approximates it; bounds were set here for any values at or beyond the usual limits of such assays; details: source organism: HIV-1 M:B_ARV2/SF2
measuredAttribute: Kd (nM)
Give just the numeric value; nM need not be written.

*Q* Give recorded Kd with HLA-A*02:03 for the following sequence: LVGPTPVNI
*A* 17.6

* * *

molecular target: HLA-A*03:01; assay: IEDB peptide-MHC binding, purified MHC/direct/fluorescence; filed as Kd, often an IC50 or EC50 that approximates it; bounds were set here for any values at or beyond the usual limits of such assays; settings: source organism: Rickettsia prowazekii
measuredAttribute: Kd
Give the figure together with its unit, number first.

*Q* Which Kd value belongs to KIFEYGFTF ?
*A* 6.02 µM
